Details: basic group
Readout Name: pKa
Give the value as a plain number.

Query: Field request: pKa | item: Clc1ccc(C/C(=C\CN2CCCC2)c2ccccc2)cc1
Reply: 8.77

Query: Field request: pKa | item: c1cnc2ccc3ncccc3c2c1
Reply: 4

Query: Field request: pKa | item: c1cncc(-c2ccoc2)c1
Reply: 4.93

Query: Field request: pKa | item: Nc1nc(N)c2cn[nH]c2n1
Reply: 5.58

Query: Field request: pKa | item: C[C@@H]([C@H](O)c1ccccc1)N(C)C
Reply: 9.22

***
Query: Field request: pKa | item: Cc1nc2ccccc2[nH]1
Reply: 6.3

Query: Field request: pKa | item: C[NH+](C)CCc1nnn[nH]1
Reply: -2.8

Query: Field request: pKa | item: c1ccc2c(c1)CNCCC[NH2+]Cc1ccccc1OCCO2
Reply: 7.82

Query: Field request: pKa | item: O=C([O-])CCc1c[nH]cn1
Reply: 7.55

Query: Field request: pKa | item: Nc1nc2ncncc2[nH]1
Reply: 4.68
